Reference for the values: paper PMC12722729

# Test system: WIL2-NS cells
# PROCEDURE_SUMMARY: MTT cytotoxicity and selectivity index, WIL2-NS cells
# Type: cell-based, human
# EXPERIMENTAL_CONTEXT: IC50 WIL2-NS compared to IC50 Jurkat
MEASUREMENT_NAME: Selectivity index (SI)

- COMPOUND: "CC(C)N(C(=S)[S][Sn]([c]1ccccc1)([c]1ccccc1)[c]1ccccc1)C(C)C"
  OBSERVED_RESULT: 5.5
- COMPOUND: "C=CCN(CC=C)C(=S)[S][Sn]([c]1ccccc1)([c]1ccccc1)[c]1ccccc1 [OC4, Triphenyltin(IV) diallyl dithiocarbamate]"
  OBSERVED_RESULT: 1
- COMPOUND: "C=CCN(CC=C)C(=S)[S][Sn]([S]C(=S)N(CC=C)CC=C)([c]1ccccc1)[c]1ccccc1 [OC3, Diphenyltin(IV) diallyl dithiocarbamate]"
  OBSERVED_RESULT: 0.42
- COMPOUND: "CC(C)N(C(=S)[S][Sn]([S]C(=S)N(C(C)C)C(C)C)([c]1ccccc1)[c]1ccccc1)C(C)C"
  OBSERVED_RESULT: 0.37
- COMPOUND: "CCN(CC)C(=S)[S][Sn]([c]1ccccc1)([c]1ccccc1)[c]1ccccc1 [OC5, Triphenyltin(IV) diethyldithiocarbamate]"
  OBSERVED_RESULT: 0.57
